# Test Target: Alpha 2C receptor (Homo sapiens)
# Construct: expressed in transfected cells; host or cells: NIH-3T3
# Test Description: RSAT (Receptor Selection and Amplification Technology) assay, alpha 2C
# Format: cell-based
# Run Conditions: NIH-3T3 cells cotransfected with receptor and Gq/i5; na = not active
Some molecules, each annotated with its measured EC50.
Express your answer in nM, writing the number without its unit.

Some molecules with recorded EC50:
{"Molecule": "Cc1ccccc1CC(/N=C1/NCCS1)c1cccc(Cl)c1 (stereo not shown)", "Test Target": "Alpha 2C receptor (Homo sapiens)", "EC50, nM": 8.34}
{"Molecule": "c1ccc(CC(/N=C2\\NCCO2)c2ccccc2)cc1 (stereo not shown)", "Test Target": "Alpha 2C receptor (Homo sapiens)", "EC50, nM": 3.36}
{"Molecule": "Cc1cccc(C(Cc2ccccc2)/N=C2/NCCS2)c1C (stereo not shown)", "Test Target": "Alpha 2C receptor (Homo sapiens)", "EC50, nM": 9.48}

--- query ---
What value of measured EC50 is listed for Fc1c(Cl)cccc1C(Cc1ccccc1)/N=C1/NCCS1 (stereo not shown) ?
6.48

* * *

# Test Target: Alpha 2C receptor (Homo sapiens, UniProt P18825)
# Construct: expressed in transfected cells; host or cells: NIH-3T3
# Sequence (P18825 whole entry): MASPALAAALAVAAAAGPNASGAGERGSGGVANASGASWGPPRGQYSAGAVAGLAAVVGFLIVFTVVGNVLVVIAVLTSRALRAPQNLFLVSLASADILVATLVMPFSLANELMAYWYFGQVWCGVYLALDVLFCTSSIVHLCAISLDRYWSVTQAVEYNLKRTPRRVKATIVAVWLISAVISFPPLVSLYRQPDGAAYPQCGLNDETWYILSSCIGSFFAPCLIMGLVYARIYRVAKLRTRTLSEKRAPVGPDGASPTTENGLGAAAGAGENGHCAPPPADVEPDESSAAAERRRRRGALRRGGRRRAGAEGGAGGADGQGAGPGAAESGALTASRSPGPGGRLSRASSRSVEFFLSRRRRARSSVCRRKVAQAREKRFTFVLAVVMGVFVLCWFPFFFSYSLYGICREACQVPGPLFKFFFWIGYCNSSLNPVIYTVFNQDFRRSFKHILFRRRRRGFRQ
# Test Description: RSAT (Receptor Selection and Amplification Technology) assay, alpha 2C
# Format: cell-based
# Run Conditions: ratio of maximal effect of the drug to maximal effect of standard full agonist brimonidine
Some molecules, each annotated with its measured RSAT (rel eff) Alpha 2C, intrinsic activity.
Respond using a number only.

{"Molecule": "Fc1c(Cl)cccc1C(Cc1ccccc1)/N=C1\\NCCO1 (stereo not shown)", "Test Target": "Alpha 2C receptor (Homo sapiens, UniProt P18825)", "Numeric Value": 0.32}
{"Molecule": "Cc1cccc(CC(N=C2NCCN2)c2cccc(Cl)c2)c1 (stereo not shown)", "Test Target": "Alpha 2C receptor (Homo sapiens, UniProt P18825)", "Numeric Value": 0.38}
{"Molecule": "Cc1cccc(C(Cc2ccccc2)/N=C2/NCCS2)c1C (stereo not shown)", "Test Target": "Alpha 2C receptor (Homo sapiens, UniProt P18825)", "Numeric Value": 0.45}
{"Molecule": "Cc1ccc(CC(/N=C2\\NCCO2)c2cccc(Cl)c2)cc1 (stereo not shown)", "Test Target": "Alpha 2C receptor (Homo sapiens, UniProt P18825)", "Numeric Value": 0.46}
{"Molecule": "Fc1c(Cl)cccc1C(Cc1ccccc1)/N=C1/NCCS1 (stereo not shown)", "Test Target": "Alpha 2C receptor (Homo sapiens, UniProt P18825)", "Numeric Value": 0.38}
{"Molecule": "c1ccc(CC(/N=C2\\NCCO2)c2ccccc2)cc1 (stereo not shown)", "Test Target": "Alpha 2C receptor (Homo sapiens, UniProt P18825)", "Numeric Value": 0.45}

What value of measured RSAT (rel eff) Alpha 2C, intrinsic activity is listed for Cc1cccc(CC(/N=C2\NCCO2)c2cccc(Cl)c2)c1 (stereo not shown) ?
0.63

What value of measured RSAT (rel eff) Alpha 2C, intrinsic activity is listed for Cc1cccc(CC(/N=C2/NCCS2)c2cccc(Cl)c2)c1 (stereo not shown) ?
0.44

What value of measured RSAT (rel eff) Alpha 2C, intrinsic activity is listed for Cc1ccccc1CC(/N=C1/NCCS1)c1cccc(Cl)c1 (stereo not shown) ?
0.46

What value of measured RSAT (rel eff) Alpha 2C, intrinsic activity is listed for c1ccc(CC(/N=C2/NCCS2)c2ccccc2)cc1 (stereo not shown) ?
0.42

What value of measured RSAT (rel eff) Alpha 2C, intrinsic activity is listed for Fc1c(Cl)cccc1C(Cc1ccccc1)N=C1NCCN1 (stereo not shown) ?
0.39

What value of measured RSAT (rel eff) Alpha 2C, intrinsic activity is listed for Cc1c(F)cccc1CC(N=C1NCCN1)c1cccc(Cl)c1Cl (stereo not shown) ?
0.31

What value of measured RSAT (rel eff) Alpha 2C, intrinsic activity is listed for Cc1ccccc1CC(/N=C1\NCCO1)c1cccc(Cl)c1 (stereo not shown) ?
0.39

What value of measured RSAT (rel eff) Alpha 2C, intrinsic activity is listed for Clc1cccc(C(Cc2ccccc2)/N=C2/NCCS2)c1 (stereo not shown) ?
0.33

What value of measured RSAT (rel eff) Alpha 2C, intrinsic activity is listed for Cc1cccc(C(Cc2ccccc2)/N=C2\NCCO2)c1C (stereo not shown) ?
0.39

What value of measured RSAT (rel eff) Alpha 2C, intrinsic activity is listed for Cc1ccc(CC(/N=C2/NCCS2)c2cccc(Cl)c2)cc1 (stereo not shown) ?
0.45

What value of measured RSAT (rel eff) Alpha 2C, intrinsic activity is listed for Clc1cccc(C(Cc2ccccc2)/N=C2\NCCO2)c1 (stereo not shown) ?
0.37

What value of measured RSAT (rel eff) Alpha 2C, intrinsic activity is listed for Clc1ccc(Cl)c(CC(N=C2NCCN2)c2cccc(Cl)c2Cl)c1 (stereo not shown) ?
0.39

What value of measured RSAT (rel eff) Alpha 2C, intrinsic activity is listed for Clc1cc(Cl)cc(CC(N=C2NCCN2)c2cccc(Cl)c2Cl)c1 (stereo not shown) ?
0.42

* * *

# Test Target: Alpha 2C receptor (Homo sapiens, UniProt P18825)
# Construct: expressed in transfected cells; host or cells: NIH-3T3
# Test Description: RSAT (Receptor Selection and Amplification Technology) assay, alpha 2C
# Format: cell-based
# Run Conditions: NIH-3T3 cells cotransfected with receptor and Gq/i5; na = not active
Some molecules, each annotated with its measured EC50.
Express your answer in nM, writing the number without its unit.

Some molecules with recorded EC50:
{"Molecule": "Clc1cccc(C(Cc2ccccc2)/N=C2/NCCS2)c1 (stereo not drawn)", "EC50 [nM]": 4.71}
{"Molecule": "Clc1cccc(C(Cc2ccccc2)/N=C2\\NCCO2)c1 (stereo not drawn)", "EC50 [nM]": 4.39}
{"Molecule": "Cc1cccc(CC(/N=C2/NCCS2)c2cccc(Cl)c2)c1 (stereo not drawn)", "EC50 [nM]": 4.33}
{"Molecule": "Clc1cc(Cl)cc(CC(N=C2NCCN2)c2cccc(Cl)c2Cl)c1 (stereo not drawn)", "EC50 [nM]": 5.74}
{"Molecule": "Fc1c(Cl)cccc1C(Cc1ccccc1)N=C1NCCN1 (stereo not drawn)", "EC50 [nM]": 1.97}

What value of measured EC50 is listed for Cc1cccc(CC(/N=C2\NCCO2)c2cccc(Cl)c2)c1 (stereo not drawn) ?
8.56

* * *

Some molecules, each annotated with its measured EC50.
# Test Target: Alpha 2B receptor (Homo sapiens, UniProt P18089)
# Construct: expressed in transfected cells; host or cells: NIH-3T3
# Sequence (P18089 whole entry): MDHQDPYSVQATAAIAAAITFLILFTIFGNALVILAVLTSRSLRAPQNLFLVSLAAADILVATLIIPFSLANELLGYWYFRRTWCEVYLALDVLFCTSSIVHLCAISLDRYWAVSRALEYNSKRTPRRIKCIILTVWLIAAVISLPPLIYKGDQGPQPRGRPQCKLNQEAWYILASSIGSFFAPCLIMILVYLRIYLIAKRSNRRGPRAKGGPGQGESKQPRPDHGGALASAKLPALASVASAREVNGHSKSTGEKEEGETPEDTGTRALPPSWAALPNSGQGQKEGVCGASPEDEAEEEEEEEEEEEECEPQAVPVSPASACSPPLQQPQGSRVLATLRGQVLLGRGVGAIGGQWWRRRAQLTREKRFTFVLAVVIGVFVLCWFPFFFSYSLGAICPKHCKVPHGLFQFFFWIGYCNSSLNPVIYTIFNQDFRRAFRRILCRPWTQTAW
# Test Description: RSAT (Receptor Selection and Amplification Technology) assay, alpha 2B
# Type: cell-based
# Run Conditions: NIH-3T3 cells cotransfected with receptor and Gq/i5; na = not active
Express your answer in nM, writing the number without its unit.

Some molecules with recorded EC50:
{"Molecule": "Cc1cccc(C(Cc2ccccc2)/N=C2\\NCCO2)c1C (stereo not drawn)", "Unit Of Measurement": "nM", "EC50": 3.48}
{"Molecule": "Cc1cccc(CC(N=C2NCCN2)c2cccc(Cl)c2)c1 (stereo not drawn)", "Unit Of Measurement": "nM", "EC50": 1.52}
{"Molecule": "Clc1cccc(C(Cc2ccccc2)N=C2NCCN2)c1 (stereo not drawn)", "Unit Of Measurement": "nM", "EC50": 5.91}
{"Molecule": "Cc1c(F)cccc1CC(N=C1NCCN1)c1cccc(Cl)c1Cl (stereo not drawn)", "Unit Of Measurement": "nM", "EC50": 8.04}
{"Molecule": "Cc1ccccc1CC(/N=C1\\NCCO1)c1cccc(Cl)c1 (stereo not drawn)", "Unit Of Measurement": "nM", "EC50": 1.52}

Entry Clc1cccc(C(Cc2ccccc2Br)NC2=NCCO2)c1 (stereo not drawn) , system Alpha 2B receptor (Homo sapiens, UniProt P18089): what EC50 was measured?
0.86

Entry Clc1cc(Cl)cc(CC(N=C2NCCN2)c2cccc(Cl)c2Cl)c1 (stereo not drawn) , system Alpha 2B receptor (Homo sapiens, UniProt P18089): what EC50 was measured?
0.9

Entry c1ccc(CC(/N=C2\NCCO2)c2ccccc2)cc1 (stereo not drawn) , system Alpha 2B receptor (Homo sapiens, UniProt P18089): what EC50 was measured?
3.69

Entry Cc1cccc(CC(/N=C2/NCCS2)c2cccc(Cl)c2)c1 (stereo not drawn) , system Alpha 2B receptor (Homo sapiens, UniProt P18089): what EC50 was measured?
2.96

Entry c1ccc(CC(N=C2NCCN2)c2ccccc2)cc1 (stereo not drawn) , system Alpha 2B receptor (Homo sapiens, UniProt P18089): what EC50 was measured?
6.38

Entry Cc1ccc(CC(/N=C2\NCCO2)c2cccc(Cl)c2)cc1 (stereo not drawn) , system Alpha 2B receptor (Homo sapiens, UniProt P18089): what EC50 was measured?
5.11

Entry COc1ccccc1CC(NC1=NCCO1)c1cccc(Cl)c1 (stereo not drawn) , system Alpha 2B receptor (Homo sapiens, UniProt P18089): what EC50 was measured?
0.63

* * *

# Test Target: Alpha 2B receptor (Homo sapiens, UniProt P18089)
# Construct: expressed in transfected cells; host or cells: NIH-3T3
# Test Description: RSAT (Receptor Selection and Amplification Technology) assay, alpha 2B
# Assay type: cell-based
# Run Conditions: ratio of maximal effect of the drug to maximal effect of standard full agonist brimonidine
Some molecules, each annotated with its measured RSAT (rel eff) Alpha 2B, intrinsic activity.
Respond using a number only.

Some molecules with recorded RSAT (rel eff) Alpha 2B, intrinsic activity:
{"Molecule": "Cc1ccccc1CC(/N=C1\\NCCO1)c1cccc(Cl)c1 (stereo not drawn)", "Numeric Value": 0.87}
{"Molecule": "Cc1cccc(CC(/N=C2\\NCCO2)c2cccc(Cl)c2)c1 (stereo not drawn)", "Numeric Value": 0.92}
{"Molecule": "Clc1cccc(C(Cc2ccccc2Br)NC2=NCCO2)c1 (stereo not drawn)", "Numeric Value": 0.92}
{"Molecule": "Clc1cccc(C(Cc2ccccc2)/N=C2\\NCCO2)c1 (stereo not drawn)", "Numeric Value": 0.83}
{"Molecule": "c1ccc(CC(N=C2NCCN2)c2ccccc2)cc1 (stereo not drawn)", "Numeric Value": 0.77}

--- query ---
What value of measured RSAT (rel eff) Alpha 2B, intrinsic activity is listed for c1ccc(CC(/N=C2/NCCS2)c2ccccc2)cc1 (stereo not drawn) ?
0.90

Measured values drawn from patent US20090239918A1 for this set.
